# TESTED ON: Streptavidin (Streptomyces avidinii)
# PROCEDURE TEXT: streptavidin binders on small-molecule microarray, primary screen, artefact control for SMM compound annotation, biophysical, 635/667 nm fluorescence (AID 1147);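 further: signal reflects streptavidin binding to arrayed compounds as a control protein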
# STUDY CONDITIONS: streptavidin binding, higher = more signal
METRIC: composite z-score

Which composite z-score is reported with Streptavidin (Streptomyces avidinii) for this entry: "CC(C)(C)OC(=O)CC[C@]1(C(=O)N2CCOCC2)N=C(c2ccc(OCCCO)cc2)O[C@H]1c1ccccc1CN=[N+]=[N-]" ?
1.08

Which composite z-score is reported with Streptavidin (Streptomyces avidinii) for this entry: "CN1C(=O)[C@]2(CCS(=O)(=O)c3ccccc3)N=C(c3ccc(OCCCO)cc3)O[C@@H]2c2ccccc21" ?
0.294

Which composite z-score is reported with Streptavidin (Streptomyces avidinii) for this entry: C=CCC(OC(C)=O)[C@@H]1[C@@H](N(Cc2cc3ccccc3o2)C(=O)Cc2ccc(OC)cc2)c2cc(OCCCO)ccc2N1C(=O)Cc1ccc2ccccc2c1 (stereo partly specified) ?
0.0489

Which composite z-score is reported with Streptavidin (Streptomyces avidinii) for this entry: "COCCOC(=O)N1C(=O)[C@@]2(c3cc(C#CC4(O)CCCCCC4)ccc31)[C@H](c1ccccc1OCCO)N1[C@H](c3ccccc3)[C@H](c3ccccc3)OC(=O)[C@H]1[C@@H]2C(=O)N1CCCCCCC1" ?
1.64

Which composite z-score is reported with Streptavidin (Streptomyces avidinii) for this entry: "COCCOC(=O)N1C(=O)[C@@]2(c3cc(C#CC4=CCCCC4)ccc31)[C@H](c1ccc(OCCO)cc1)N1[C@H](c3ccccc3)[C@H](c3ccccc3)OC(=O)[C@H]1[C@@H]2C(=O)N1CCCCCCC1" ?
0.945

Which composite z-score is reported with Streptavidin (Streptomyces avidinii) for this entry: "NC(=O)NCC#Cc1ccc2c(c1)[C@]1(C(=O)N2)[C@H](C(=O)Nc2nc3ccccc3s2)[C@H]2C(=O)O[C@H](c3ccccc3)[C@H](c3ccccc3)N2[C@@H]1c1ccc(OCCO)cc1" ?
1.11

Data origin, for the record: PubChem BioAssay
